Test system: wild type human immunodeficiency virus (HIV) strain IIIB
assay.details: microbe, parasite or virus in culture
Type: cell-based, HIV-1
condition.details: Human immunodeficiency virus 1, IIIB, 72 h, read-out: EC50 (IIIB)
pEC50: −log10 of the molar value.
readout.type: pEC50

compound: CC(C)C(=O)OC[C@H]1O[C@@H](n2ccc(N)nc2=O)C2(CC2)[C@@H]1O [Compound 4]
subject.of.test: wild type human immunodeficiency virus (HIV) strain IIIB
observed: < 4.01

====

assay.details: Cellular toxicity in the Huh7-CMV-Luc replicon assay
Assay type: cell-based
condition.details: human; Huh7-CMV-Luc cells, three days incubation, Luc activity

molecule: COC(=O)[C@H](C)NP(=O)(OC[C@H]1O[C@@H](n2ccc(N)nc2=O)C2(CC2)[C@@H]1O)Oc1ccccc1 (some centres unmarked)
CC50 at 3 days: > 98 µM

molecule: Nc1ccn([C@@H]2O[C@H](CO)[C@@H](O)C23CC3)c(=O)n1
CC50 at 3 days: > 98 µM

molecule: CC(C)C(=O)OC[C@H]1O[C@@H](n2ccc(N)nc2=O)C2(CC2)[C@@H]1O
CC50 at 3 days: > 98 µM

molecule: CC(C)C(=O)OC[C@H]1O[C@@H](n2ccc(N)nc2=O)C2(CC2)[C@@H]1OC(=O)C(C)C
CC50 at 3 days: > 98 µM

molecule: CCOC(=O)[C@H](Cc1ccccc1)NP(=O)(OC[C@H]1O[C@@H](n2ccc(N)nc2=O)C2(CC2)[C@@H]1O)Oc1ccccc1 (some centres unmarked)
CC50 at 3 days: > 98 µM

molecule: C[C@H](NP(=O)(OC[C@H]1O[C@@H](n2ccc(N)nc2=O)C2(CC2)[C@@H]1O)Oc1ccc(Cl)cc1)C(=O)OCc1ccccc1 (some centres unmarked)
CC50 at 3 days: > 98 µM

molecule: C[C@H](NP(=O)(OC[C@H]1O[C@@H](n2ccc(N)nc2=O)C2(CC2)[C@@H]1O)Oc1ccccc1)C(=O)OCc1ccccc1 (some centres unmarked)
CC50 at 3 days: > 98 µM

molecule: CC(C)C(=O)O[C@@H]1[C@@H](CO)O[C@@H](n2ccc(N)nc2=O)C12CC2
CC50 at 3 days: > 98 µM
